- Test system: southern armyworm (Spodopetra eridania Cramer)
- PROCEDURE SUMMARY: Mite/insect screen, sprayed squash leaves (SAW)
- Format: in vivo
- STATED CONDITIONS: percent mortality; spray rate 200 ppm
ATTRIBUTE MEASURED: SAW RESULTS % (%)
Quick note: give the figure in %, leave out the unit.

1. Fc1cccc2c(OCCc3cccc(C(F)(F)F)c3)ncnc12 ... 0
2. Fc1cccc2c(OCCc3ccc(-c4ccccc4)cc3)ncnc12 [Example 93] ... 100
3. Fc1cccc2c(NCC(c3ccccc3)c3ccccc3)ncnc12 ... 0
4. Fc1cccc2c(OCCc3ccc(-c4ccccc4)cc3)ncnc12 [Example 116] ... 0

# next compound below
Q) Looking for the measured SAW RESULTS % of Clc1ccc2ncnc(NCCc3ccccc3Oc3ccccc3)c2c1 , can you help?
A) 100
